I'd appreciate it if you could supply solubility change mitosis (log2) values for the items below.
# Test system: HeLa Kyoto;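 note: synchronized HeLa Kyoto cells (double thymidine block for G1/S, nocodazole release for mitosis), protein amounts in NP-40 versus SDS lysates quantified by mass spectrometry, three biological replicates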
# PROTOCOL_DESCRIPTION: solubility change mitosis vs G1/S (difference of NP-40 vs SDS log2 ratios) (log2 ratio difference); higher = more soluble in mitosis
Answers are plain numbers.

For the substance MAPGSRGERSSFRSRRGPGVPSPQPDVTMLSRLLKEHQAKQNERKELQEKRRREAITAATCLTEALVDHLNVGVAQAYMNQRKLDHEVKTLQVQAAQFAKQTGQWIGMVENFNQALKEIGDVENWARSIELDMRTIATALEYVYKGQLQSAPS [BLOC1S1] , what solubility change mitosis (log2) is on record?
0.133

Then PRKACA ?
-0.0702

// for each substance below, give its solubility change mitosis (log2)
1. MRCCHICKLPGRVMGIRVLRLSLVVILVLLLVAGALTALLPSVKEDKMLMLRREIKSQGKSTMDSFTLIMQTYNRTDLLLKLLNHYQAVPNLHKVIVVWNNIGEKAPDELWNSLGPHPIPVIFKQQTANRMRNRLQVFPELETNAVLMVDDDTLISTPDLVFAFSVWQQFPDQIVGFVPRKHVSTSSGIYSYGSFEMQAPGSGNGDQYSMVLIGASFFNSKYLELFQRQPAAVHALIDDTQNCDDIAMNFIIAKHIGKTSGIFVKPVNMDNLEKETNSGYSGMWHRAEHALQRSYCINKLVNIYDSMPLRYSNIMISQFGFPYANYKRKI [EXTL2]
2. MSDSGEQNYGERESRSASRSGSAHGSGKSARHTPARSRSKEDSRRSRSKSRSRSESRSRSRRSSRRHYTRSRSRSRSHRRSRSRSYSRDYRRRHSHSHSPMSTRRRHVGNRANPDPNCCLGVFGLSLYTTERDLREVFSKYGPIADVSIVYDQQSRRSRGFAFVYFENVDDAKEAKERANGMELDGRRIRVDFSITKRPHTPTPGIYMGRPTYGSSRRRDYYDRGYDRGYDDRDYYSRSYRGGGGGGGGWRAAQDRDQIYRRRSPSPYYSRGGYRSRSRSRSYSPRRY [TRA2B]
3. KIDINS220
4. MGLELYLDLLSQPCRAVYIFAKKNDIPFELRIVDLIKGQHLSDAFAQVNPLKKVPALKDGDFTLTESVAILLYLTRKYKVPDYWYPQDLQARARVDEYLAWQHTTLRRSCLRALWHKVMFPVFLGEPVSPQTLAATLAELDVTLQLLEDKFLQNKAFLTGPHISLADLVAITELMHPVGAGCQVFEGRPKLATWRQRVEAAVGEDLFQEAHEVILKAKDFPPADPTIKQKLMPWVLAMIR [GSTT1]
5. MGSLSGLRLAAGSCFRLCERDVSSSLRLTRSSDLKRINGFCTKPQESPGAPSRTYNRVPLHKPTDWQKKILIWSGRFKKEDEIPETVSLEMLDAAKNKMRVKISYLMIALTVVGCIFMVIEGKKAAQRHETLTSLNLEKKARLKEEAAMKAKTE [FAM162A]
6. MQPASAKWYDRRDYVFIEFCVEDSKDVNVNFEKSKLTFSCLGGSDNFKHLNEIDLFHCIDPNDSKHKRTDRSILCCLRKGESGQSWPRLTKERAKLNWLSVDFNNWKDWEDDSDEDMSNFDRFSEMMNNMGGDEDVDLPEVDGADDDSQDSDDEKMPDLE [PTGES3]
7. MSGSMATAEASGSDGKGQEVETSVTYYRLEEVAKRNSLKELWLVIHGRVYDVTRFLNEHPGGEEVLLEQAGVDASESFEDVGHSSDAREMLKQYYIGDIHPSDLKPESGSKDPSKNDTCKSCWAYWILPIIGAVLLGFLYRYYTSESKSS [CYB5B]
8. MPKRKAAGQGDMRQEPKRRSARLSAMLVPVTPEVKPKRTSSSRKMKTKSDMMEENIDTSAQAVAETKQEAVVEEDYNENAKNGEAKITEAPASEKEIVEVKEENIEDATEKGGEKKEAVAAEVKNEEEDQKEDEEDQNEEKGEAGKEDKDEKGEEDGKEDKNGNEKGEDAKEKEDGKKGEDGKGNGEDGKEKGEDEKEEEDRKETGDGKENEDGKEKGDKKEGKDVKVKEDEKEREDGKEDEGGNEEEAGKEKEDLKEEEEGKEEDEIKEDDGKKEEPQSIV [HMGN5]

-0.23
0.613
0.00102
-0.295
0.327
-0.00282
0.0898
0.272

Go through the items and report each one's solubility change mitosis (log2).
1. MAYPGHPGAGGGYYPGGYGGAPGGPAFPGQTQDPLYGYFAAVAGQDGQIDADELQRCLTQSGIAGGYKPFNLETCRLMVSMLDRDMSGTMGFNEFKELWAVLNGWRQHFISFDTDRSGTVDPQELQKALTTMGFRLSPQAVNSIAKRYSTNGKITFDDYIACCVKLRALTDSFRRRDTAQQGVVNFPYDDFIQCVMSV [SRI]
2. MWSGRKLGSSGGWFLRVLGPGGCNTKAARPLISSAVYVKNQLSGTLQIKPGVFNEYRTIWFKSYRTIFSCLNRIKSFRYPWARLYSTSQTTVDSGEVKTFLALAHKWWDEQGVYAPLHSMNDLRVPFIRDNLLKTIPNHQPGKPLLGMKILDVGCGGGLLTEPLGRLGASVIGIDPVDENIKTAQCHKSFDPVLDKRIEYRVCSLEEIVEETAETFDAVVASEVVEHVIDLETFLQCCCQVLKPGGSLFITTINKTQLSYALGIVFSEQIASIVPKGTHTWEKFVSPETLESILESNGLSVQTVVGMLYNPFSGYWHWSENTSLNYAAYAVKSRVQEHPASAEFVLKGETEELQANACTNPAVHEKLKK [COQ3]
3. MPLENLEEEGLPKNPDLRIAQLRFLLSLPEHRGDAAVRDELMAAVRDNNMAPYYEALCKSLDWQIDVDLLNKMKKANEDELKRLDEELEDAEKNLGESEIRDAMMAKAEYLCRIGDKEGALTAFRKTYDKTVALGHRLDIVFYLLRIGLFYMDNDLITRNTEKAKSLIEEGGDWDRRNRLKVYQGLYCVAIRDFKQAAELFLDTVSTFTSYELMDYKTFVTYTVYVSMIALERPDLREKVIKGAEILEVLHSLPAVRQYLFSLYECRYSVFFQSLAVVEQEMKKDWLFAPHYRYYVREMRIHAYSQLLESYRSLTLGYMAEAFGVGVEFIDQELSRFIAAGRLHCKIDKVNEIVETNRPDSKNWQYQETIKKGDLLLNRVQKLSRVINM [PSMD6]
4. MSCESSMVLGYWDIRGLAHAIRLLLEFTDTSYEEKRYTCGEAPDYDRSQWLDVKFKLDLDFPNLPYLLDGKNKITQSNAILRYIARKHNMCGETEEEKIRVDIIENQVMDFRTQLIRLCYSSDHEKLKPQYLEELPGQLKQFSMFLGKFSWFAGEKLTFVDFLTYDILDQNRIFDPKCLDEFPNLKAFMCRFEALEKIAAYLQSDQFCKMPINNKMAQWGNKPVC [GSTM3]

1: 0.318; 2: -0.0133; 3: -0.189; 4: -0.117
